Test system: OVCAR-3
Experiment: NCI tumour cell line growth inhibition, 48 h
Calls of active or inactive are those of the source. No stated cut-off is given here; in the data, active = GI50 up to about 1.1 µM and inactive = higher.
A collection of compounds and their measured GI50

{"compound": "CC1(C)C2CC(O)C1(C)CC2=O (stereo unspecified)", "GI50": "> 100 µM (inactive)"}
{"compound": "COc1cccc2c1Cc1cc(-c3ccccc3)[n+](C)n1-2", "GI50": "2.92 µM (inactive)"}
{"compound": "CCC(C(=O)O)c1ccc(OCc2ccccc2)cc1 (stereo unspecified)", "GI50": "> 100 µM (inactive)"}
{"compound": "COC(=O)C1(N2CCOCC2)CCC([C@@H](c2ccccc2)C(C)[N+](=O)[O-])C1 (stereo partly specified)", "GI50": "18.7 µM (inactive)"}

The recorded GI50 for entry COc1nc2ccc(Cl)c(C(O)c3ccccc3)c2nc1OC (stereo unspecified) equals 24.1 µM (inactive)

Value of measured GI50 for the entry CC(C)(C)OCC1NC(=O)[C@@H]2Cc3c([nH]c4ccccc34)C(c3ccccc3)N2C1=O (stereo partly specified) : > 50 µM (inactive)

* * *

Tested on: UO-31
Assay: NCI tumour cell line growth inhibition, 48 h
Calls of active or inactive are those of the source. No stated cut-off is given here; in the data, active = GI50 up to about 1.1 µM and inactive = higher.
Listed molecules paired with reported GI50

Field GI50 (entry `COC(=O)C1=C(C)NC(C)=C(C(=O)OC)C1c1cccc(N=O)c1` ) reads 8.38 µM (inactive)

* * *

Tested on: PC-3
Experiment: NCI tumour cell line growth inhibition, 48 h
Calls of active or inactive are those of the source. Rule as the data show it: active = GI50 up to about 1.1 µM and inactive = higher.
Assign a class; possible classes are active, inactive

Answered examples (3):
{"molecule": "CCN(CC)CCC(=O)c1ccc(C)cc1", "answer.label": "inactive"}
{"molecule": "COc1cc(C2SCC(=O)N2c2ccc(-n3c(-c4ccccc4)nc4ccccc4c3=O)cc2)cc(OC)c1OC (stereo unspecified)", "answer.label": "inactive"}
{"molecule": "CC(=O)OC1c2ccccc2CC2(OC(C)=O)c3ccccc3C12 (stereo unspecified)", "answer.label": "inactive"}

Here is another molecule to look at.
Prompt line: Please let me know the test result on file for `O=c1c2c3c(sc2nc2n1N=CN(c1ccccc1)C2)CCCC3` .
Response line: inactive

* * *

System: HT-29
Assay: NCI tumour cell line growth inhibition, 48 h
Activity calls are given as the source filed them. Cut-off read from the data, not from the text of the source: active = GI50 up to about 1.1 µM and inactive = higher.
quantity.measured: GI50

Please review the following examples before continuing.
{"molecule": "CN(C)c1ccc(/C=C/c2ccnc3ccccc23)cc1", "result.value": "25.3 µM (inactive)"}
{"molecule": "OCC1OC(c2cccc3cc(O)c(O)cc23)CC1O (centres undefined)", "result.value": "> 100 µM (inactive)"}
{"molecule": "CC1CC[C@@]2(OC1)OC1CC3C4CCC5C[C@@H](OC6OC(CO)C(OC7OC(CO)C(O)C(OC8OC(CO)C(O)C(OC9OC(CO)C(O)C(O)C9O)C8O)C7OC7OC(CO)C(O)C(O)C7O)C(O)C6O)[C@H](O)C[C@]5(C)C4CC[C@]3(C)C1[C@@H]2C (some centres undefined)", "result.value": "> 80.5 µM (inactive)"}

# next molecule below
Tested system HT-29; GI50 recorded for `CC(=O)Nc1n[n+]([O-])c2cc(C)ccc2[n+]1[O-]` was 2.52 µM (inactive)

* * *

Test system: HOP-92
Test: NCI tumour cell line growth inhibition, 48 h
Structures can show the parent of a compound that is named as a salt. Active and inactive are the calls of the source. No stated cut-off is given here; in the data, active = GI50 up to about 1.1 µM and inactive = higher.
Your answer must be one of the following: true (active), false (inactive)

{"molecule": "CCOc1ccccc1NC(=O)C1=C(C)NC(C)=C(C(=O)Nc2ccccc2OCC)C1c1ccc([N+](=O)[O-])cc1", "answer.label": "false"}
{"molecule": "O=C(O)CCC(NC(=O)c1ccc(Nc2nc3ccc(C(F)(F)F)cc3nc2-c2ccccc2)cc1)C(=O)O (stereo unspecified)", "answer.label": "false"}
{"molecule": "O=C1c2cccc(NCCCNCCO)c2C(=O)c2cccc(NCCCNCCO)c21", "answer.label": "false"}
{"molecule": "CC1(C)COC(c2ccccc2-c2ccccc2)=N1", "answer.label": "false"}
{"molecule": "C=CCC1OC(C)(C)Oc2ccc(OCOCCOC)cc21 (stereo unspecified)", "answer.label": "false"}
{"molecule": "COc1cc2c(cc1OC)[C@@](C)(C(O)C(O)C(C)(C)O)NCC2 (stereo partly specified)", "answer.label": "false"}
{"molecule": "CC1NC(=O)c2c(-c3ccccc3)nn(-c3ccccc3)c2NC1=O (stereo unspecified)", "answer.label": "false"}
{"molecule": "O=C1NC(O)c2ccccc2O1 (stereo unspecified)", "answer.label": "false"}
{"molecule": "COC(=O)/C(=C\\c1cn(C(C)=O)c2ccccc12)P(=O)(OC)OC", "answer.label": "false"}
{"molecule": "C[C@H](OCc1ccccc1)C(=O)N1CCS(=O)(=O)N2CCC[C@@H]2C1=O", "answer.label": "false"}

Prompt line: Called result for O=C(c1ccccc1)c1ccc2c(c1)N=C(c1ccc(Cl)c(Cl)c1)CC(c1ccc3ccccc3c1)N2 (stereo unspecified)
Response line: false

Prompt line: Please let me know the test result on file for `COc1ccc2c(c1)/c(=C/C#N)c1c3ccccc3[n+](C)n21` .
Response line: false

Prompt line: Would you mind telling me which call this test gave `COc1ccc(-c2nc3c(C(=O)NCCN(C)C)cccc3c3ccccc23)cc1` ?
Response line: false

Prompt line: Call for entry O=C1c2c(O)ccc(O)c2C(=O)c2c(NCCNCCO)ccc(NCCNCCO)c21 [MITOXANTRONE HYDROCHLORIDE] :
Response line: true

Prompt line: Write down the call the test reported for this molecule. Item: `S=C(Nc1ccccc1)N(/N=C/C=C/c1ccccc1)c1nnc(-c2ccccc2)c(-c2ccccc2)n1`
Response line: false

Prompt line: Outcome? `C(=N\c1ccc(-c2nc3ccccc3[nH]2)cc1)/c1ccco1`
Response line: false

Prompt line: Which outcome was assigned to `CCN(CC)CCNC(=O)c1ccc([N+](=O)[O-])cc1OC` in this test?
Response line: false

Prompt line: Could you kindly confirm the outcome this assay logged for CC(=O)C1=CCC2c3[nH]c4ccccc4c3CCN2C1 (stereo unspecified) ?
Response line: false

Prompt line: Assay outcome for CCN(CC)CCCC(C)NC(=O)c1ccc2c(c1)C(=O)c1ccccc1C2=O (stereo unspecified) : what was it?
Response line: false

Prompt line: Tell me the recorded outcome of this test for `Cc1cc2c(cc1C)C(=O)/C(=N/Nc1ccc(F)cc1)CCO2` .
Response line: false

Prompt line: Please share the test call associated with COc1cccc(CC2C(=O)N/C(=N\C(C)=O)N2C)c1OC(C)=O (stereo unspecified) .
Response line: false

Reference source for all entries: ChEMBL document CHEMBL1201862
